Molecular target: hERG (human ether-à-go-go-related gene) channel expressed in CHO cells (Homo sapiens)
Sequence (Q12809 whole entry): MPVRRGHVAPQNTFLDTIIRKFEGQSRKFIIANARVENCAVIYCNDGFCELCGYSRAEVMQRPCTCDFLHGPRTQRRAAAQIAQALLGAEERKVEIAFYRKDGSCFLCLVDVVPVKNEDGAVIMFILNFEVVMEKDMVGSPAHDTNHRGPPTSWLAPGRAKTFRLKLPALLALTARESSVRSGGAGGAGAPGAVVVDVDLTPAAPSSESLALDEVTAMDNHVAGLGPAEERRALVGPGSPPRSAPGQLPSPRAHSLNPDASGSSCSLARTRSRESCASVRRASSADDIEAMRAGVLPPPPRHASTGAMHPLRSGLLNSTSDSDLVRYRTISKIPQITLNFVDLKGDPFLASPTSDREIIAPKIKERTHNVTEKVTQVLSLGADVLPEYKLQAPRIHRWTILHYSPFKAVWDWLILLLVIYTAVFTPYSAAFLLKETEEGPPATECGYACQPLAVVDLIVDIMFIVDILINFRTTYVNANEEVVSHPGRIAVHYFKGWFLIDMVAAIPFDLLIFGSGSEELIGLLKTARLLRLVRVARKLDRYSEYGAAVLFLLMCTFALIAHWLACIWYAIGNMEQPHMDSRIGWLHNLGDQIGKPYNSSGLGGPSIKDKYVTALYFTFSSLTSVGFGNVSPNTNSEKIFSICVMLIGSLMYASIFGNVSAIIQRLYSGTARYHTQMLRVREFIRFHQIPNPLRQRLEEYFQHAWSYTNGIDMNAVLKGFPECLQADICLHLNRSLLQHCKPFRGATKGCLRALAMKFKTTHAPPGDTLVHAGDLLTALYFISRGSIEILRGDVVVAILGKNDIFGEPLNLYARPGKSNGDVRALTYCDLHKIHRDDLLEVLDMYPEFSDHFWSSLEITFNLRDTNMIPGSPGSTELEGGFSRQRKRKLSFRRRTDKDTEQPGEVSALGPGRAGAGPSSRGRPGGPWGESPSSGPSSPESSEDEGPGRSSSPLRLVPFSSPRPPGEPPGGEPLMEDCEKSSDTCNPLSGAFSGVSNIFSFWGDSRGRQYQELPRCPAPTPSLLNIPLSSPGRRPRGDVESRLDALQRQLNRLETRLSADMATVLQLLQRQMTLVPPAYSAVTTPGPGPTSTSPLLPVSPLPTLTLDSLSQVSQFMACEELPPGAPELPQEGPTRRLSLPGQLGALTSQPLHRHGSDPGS
Test: ScreenPatch assay, hERG ion channel block (SyncroPatch 384PE patch clamp)
Where a name gives a salt, the structure may show the parent alone.
Readout Kind: IC50 (µM)

>>> measured("CCC(=O)C(CC(C)N(C)C)(c1ccccc1)c1ccccc1 (racemic) [Racemic Methadone HCl, Methadone]")
1.89
>>> measured("C/C=C(/OC(=O)N(C)C[C@@H](C)NC(=O)[C@H](CCCNC(=N)N)NC(=O)c1ccccc1)C(C[C@@H](C)N(C)C)(c1ccccc1)c1ccccc1.O=C(O)C(F)(F)F [Levo 2RME active agent, 2,2,2-trifluoroacetate]")
29.4
>>> measured("C/C=C(/OC(=O)N(C)CCCCNC(=O)[C@H](CCCNC(=N)N)NC(=O)c1ccccc1)C(C[C@@H](C)N(C)C)(c1ccccc1)c1ccccc1.O=C(O)C(F)(F)F [Levo-Butyl active agent, 2,2,2-trifluoroacetate]")
51.5
